Test system: Serratia marcescens
Test: MIC against Gram-negative bacteria: Serratia marcescens
Type: cell-based
Conditions: 96-well plate, 5×10^5 CFU/mL, 37° C., 10 h
MIC against S. marcescens overview
Give me the value, and tack the unit on after it.

Answered cases to consult:
PRT449 (FLCRCHQGYELHRDGFSCSDIDE; listed as Homo sapiens) : 50 µg/mL
PRT562 (CQCHNNIDTTDPEACDKETGRCLKCLYHTEGEHCQFCRFGYYGDALQQDCRK; listed as Homo sapiens) : 50 µg/mL
PRT475 (VQNTCKDNPCGRGQCLITQSPPYYRCVCKHPYTGPSCS; listed as Homo sapiens) : 50 µg/mL
PRT498 (CDCNPHGSVHGDCDRTSGQCVCRLGASGLRCDECEPRHILMETDCVS; listed as Homo sapiens) : 25 µg/mL
PRT509 (CNCSTVGSLDFQCNVNTGQCNCHPKFSGAKCTECSRGHWNYPRCNL; listed as Homo sapiens) : 25 µg/mL

Challenge: Could you please provide reported MIC against S. marcescens for PRT532 (CWCSALGSYQMPCSSVTGQCECRPGVTGQRCDRCLSGAYDFPHCQGSSSACDP; listed as Homo sapiens) ? Thanks!
Response given: 12.5 µg/mL

Challenge: Give recorded MIC against S. marcescens. PRT484 (RCEDLDGVVCGGHGTCSCGRCVCERGWFGKLCQ; listed as Homo sapiens)
Response given: 12.5 µg/mL

Challenge: Fill in MIC against S. marcescens for record PRT467 (ECPGGCRNGGFCNERRICECPDGFHGPHCE; listed as Homo sapiens)
Response given: 50 µg/mL

Reference source for all entries: patent US9833497B2
